# Test system: HEK2
# Assay notes: cells
# Type: cell-based
*1 amine or outer side, *2 acyl side, *3 side chain or, on linkers, in order; H or OH if unused. Where a SMILES comes first, the peptide text is derived from it. [ ]: non-standard residue; d: D form. Cysteamide = C(CS[*:3])N[*:1]; βAla = NCCC(=O)O
Value type: IC50 (nM)
Output spec: scalar in nM, unitless text.

Recorded IC50, per entry:
CC(=O)NCCC(=O)N[C@@H](Cc1c[nH]c2ccccc12)C(=O)N[C@@H](Cc1c[nH]c2ccccc12)C(=O)N[C@@H](CCCNC(=N)N)C(=O)N[C@@H](CC(C)C)C(=O)N[C@@H](CO)C(=O)N[C@@H](CC(C)C)C(=O)N[C@@H](CCCNC(=N)N)C(=O)N[C@@H](Cc1c[nH]c2ccccc12)C(=O)N[C@@H](Cc1c[nH]c2ccccc12)C(=O)NCCS [VEPEP-3i, X1WWRLSLRWW] (Ac-[βAla]WWRLSLRWW-Cysteamide) ... 400
CC(=O)NCCC(=O)N[C@@H](Cc1c[nH]c2ccccc12)C(=O)N[C@@H](Cc1ccccc1)C(=O)N[C@@H](CCCNC(=N)N)C(=O)N[C@@H](CC(C)C)C(=O)N[C@@H](CO)C(=O)N[C@@H](CC(C)C)C(=O)N[C@@H](CCCNC(=N)N)C(=O)N[C@@H](Cc1ccccc1)C(=O)N[C@@H](Cc1c[nH]c2ccccc12)C(=O)NCCS [Short 4, X1WFRLSLRFW] (Ac-[βAla]WFRLSLRFW-Cysteamide) ... 500

We next turn to a different molecule, shown below.
Value of measured IC50 for the entry CC(=O)NCCC(=O)N[C@@H](Cc1c[nH]c2ccccc12)C(=O)N[C@@H](Cc1c[nH]c2ccccc12)C(=O)N[C@@H](CCCNC(=N)N)C(=O)N[C@@H](CC(C)C)C(=O)N[C@@H](CCCNC(=N)N)C(=O)N[C@@H](CO)C(=O)N[C@@H](Cc1c[nH]c2ccccc12)C(=O)N[C@@H](Cc1ccccc1)C(=O)N[C@@H](CCCNC(=N)N)C(=O)NCCS [Short 3, X1WWRLRSWFR] (Ac-[βAla]WWRLRSWFR-Cysteamide) : 1100

* * *

# Assay notes: Fluorescence titration of VEPEP-4 binding to small molecule cargo
# Condition notes: cargo Doxorubicin
*1 amine or outer side, *2 acyl side, *3 side chain or, on linkers, in order; H or OH if unused. Where a SMILES comes first, the peptide text is derived from it. [ ]: non-standard residue; d: D form. Cysteamide = C(CS[*:3])N[*:1]; βAla = NCCC(=O)O
Value type: Binding

CC(=O)NCCC(=O)N[C@@H](Cc1c[nH]c2ccccc12)C(=O)N[C@@H](Cc1c[nH]c2ccccc12)C(=O)N[C@@H](CCCNC(=N)N)C(=O)N[C@@H](CC(C)C)C(=O)N[C@@H](CCCNC(=N)N)C(=O)N[C@@H](CO)C(=O)N[C@@H](Cc1c[nH]c2ccccc12)C(=O)N[C@@H](Cc1ccccc1)C(=O)N[C@@H](CCCNC(=N)N)C(=O)NCCS [Short 3, X1WWRLRSWFR] (Ac-[βAla]WWRLRSWFR-Cysteamide) ... yes

* * *

# Assay notes: Fluorescence titration of VEPEP-4 binding to small molecule cargo
# Condition notes: cargo porphyrin
*1 amine or outer side, *2 acyl side, *3 side chain or, on linkers, in order; H or OH if unused. Where a SMILES comes first, the peptide text is derived from it. [ ]: non-standard residue; d: D form. Cysteamide = C(CS[*:3])N[*:1]; βAla = NCCC(=O)O
Value type: Kd (nM)
Output spec: scalar in nM, unitless text.

Value of measured Kd for the entry CC(=O)NCCC(=O)N[C@@H](Cc1c[nH]c2ccccc12)C(=O)N[C@@H](Cc1c[nH]c2ccccc12)C(=O)N[C@@H](CCCNC(=N)N)C(=O)N[C@@H](CC(C)C)C(=O)N[C@@H](CCCNC(=N)N)C(=O)N[C@@H](CO)C(=O)N[C@@H](Cc1c[nH]c2ccccc12)C(=O)N[C@@H](Cc1ccccc1)C(=O)N[C@@H](CCCNC(=N)N)C(=O)NCCS [Short 3, X1WWRLRSWFR] (Ac-[βAla]WWRLRSWFR-Cysteamide) : 700
